Experiment: PK parameters in male mice (Table 9)
Type: in vivo
Settings: PO 3 mg/kg
Experimental Readout: T1/2 (h)

>>> endpoint_value("CN(c1ccc(C#N)c(Cl)c1)[C@H]1CC[C@H](NC(=O)c2ccc(N3CCC(N4CCN(c5ccc6c(c5)C(=O)N(C5CCC(=O)NC5=O)C6=O)CC4)CC3)cc2)CC1 (stereo partly shown)")
10.6
>>> endpoint_value("CN(c1ccc(C#N)c(Cl)c1)[C@H]1CC[C@H](NC(=O)c2ccc(N3CC(CN4CCN(c5ccc6c(c5)C(=O)N(C5CCC(=O)NC5=O)C6=O)CC4)C3)cc2)CC1 (stereo partly shown)")
8.1
>>> endpoint_value("CN(c1ccc(C#N)c(Cl)c1)[C@H]1CC[C@H](NC(=O)c2ccc(N3CCN(C4CCN(c5ccc6c(c5)C(=O)N(C5CCC(=O)NC5=O)C6=O)CC4)CC3)cc2)CC1 (stereo partly shown)")
7.0
>>> endpoint_value("CN(c1ccc(C#N)c(Cl)c1)[C@H]1CC[C@H](NC(=O)c2ccc(N3CCN(CC4CN(c5ccc6c(c5)C(=O)N(C5CCC(=O)NC5=O)C6=O)C4)CC3)cc2)CC1 (stereo partly shown)")
4.3
>>> endpoint_value("N#Cc1ccc(O[C@H]2CC[C@H](NC(=O)c3ccc(N4CCC(N5CCN(c6ccc7c(c6)C(=O)N(C6CCC(=O)NC6=O)C7=O)CC5)CC4)cc3)CC2)cc1Cl (stereo partly shown)")
5.6
>>> endpoint_value("CN(c1ccc(C#N)c(Cl)c1)[C@H]1CC[C@H](NC(=O)c2ccc(N3CC(N4CCN(c5ccc6c(c5)C(=O)N(C5CCC(=O)NC5=O)C6=O)CC4)C3)cc2)CC1 (stereo partly shown)")
26.8
>>> endpoint_value("CN(c1ccc(C#N)c(Cl)c1)[C@H]1CC[C@H](NC(=O)c2ccc(N3CCC(CN4CCN(c5ccc6c(c5)C(=O)N(C5CCC(=O)NC5=O)C6=O)CC4)CC3)cc2)CC1 (stereo partly shown)")
27.0

* * *

Assay: PK parameters in male SD rats
Format: in vivo
Conditions: rat, in vivo, PO 5 mg/kg
Items are presented alongside their recorded half-life.
Experimental Readout: half-life (h)

>>> endpoint_value("CC1(C)[C@H](NC(=O)c2ccc(N3CCN(C4CN(c5ccc6c(c5)C(=O)N(C5CCC(=O)NC5=O)C6=O)C4)CC3)cc2)C(C)(C)[C@H]1Oc1ccc(C#N)c(Cl)c1 (some centres unmarked)")
10.4
>>> endpoint_value("CC1(C)[C@H](NC(=O)c2ccc(N3CCN(C4CCN(c5ccc6c(c5)C(=O)N(C5CCC(=O)NC5=O)C6=O)CC4)CC3)cc2)C(C)(C)[C@H]1Oc1ccc(C#N)c(Cl)c1 (some centres unmarked)")
8.9

* * *

Experiment: PK parameters in male mice (Table 9)
Type: in vivo
Conditions: ICR, mouse, in vivo, IV 1 mg/kg
Protocol: The pharmacokinetics (PK) of representative Compounds of the Disclosure were evaluated in mice or rats to provide an assessment of their oral bioavaibility. All animal experiments were performed under the guidelines of the University of Michigan Committee for Use and Care of Animals and using an approved animal protocol.
Items are presented alongside their recorded clearance.
Experimental Readout: clearance (mL/min/kg)

>>> endpoint_value("N#Cc1ccc(O[C@H]2CC[C@H](NC(=O)c3ccc(N4CCN(C5CCN(c6ccc7c(c6)C(=O)N(C6CCC(=O)NC6=O)C7=O)CC5)CC4)cc3)CC2)cc1Cl (stereo partly drawn)")
7.33
>>> endpoint_value("CCN(c1ccc(C#N)c(Cl)c1)[C@H]1CC[C@H](NC(=O)c2ccc(N3CCC(N4CCN(c5ccc6c(c5)C(=O)N(C5CCC(=O)NC5=O)C6=O)CC4)CC3)cc2)CC1 (stereo partly drawn)")
31.2
>>> endpoint_value("CN(c1ccc(C#N)c(Cl)c1)[C@H]1CC[C@H](NC(=O)c2ccc(N3CC(N4CCN(c5ccc6c(c5)C(=O)N(C5CCC(=O)NC5=O)C6=O)CC4)C3)cc2)CC1 (stereo partly drawn)")
3.5
>>> endpoint_value("CN(c1ccc(C#N)c(Cl)c1)[C@H]1CC[C@H](NC(=O)c2ccc(N3CCN(CC4CCN(c5ccc6c(c5)C(=O)N(C5CCC(=O)NC5=O)C6=O)CC4)CC3)cc2)CC1 (stereo partly drawn)")
8.5
>>> endpoint_value("N#Cc1ccc(O[C@H]2CC[C@H](NC(=O)c3ccc(N4CCC(N5CCN(c6ccc7c(c6)C(=O)N(C6CCC(=O)NC6=O)C7=O)CC5)CC4)cc3)CC2)cc1Cl (stereo partly drawn)")
6.5
>>> endpoint_value("CN(c1ccc(C#N)c(Cl)c1)[C@H]1CC[C@H](NC(=O)c2ccc(N3CCC(N4CCN(c5ccc6c(c5)C(=O)N(C5CCC(=O)NC5=O)C6=O)CC4)CC3)cc2)CC1 (stereo partly drawn)")
5.5

Data origin: patent US20230233690A1
